Where these numbers come from: ChEMBL document CHEMBL1156683

The following compounds are shown together with reported pKa values.
test: Dissociation constant, pKa corresponding to protonation of the 4-hydroxy group by spectrophotometric titration; format: physicochemical

Solved cases below.
>  <compound>
O=c1ccn(CCN2CCCCC2)c(CO)c1O

>  <pKa>
2.2

$$$$
>  <compound>
Cn1cc(O)c(=O)cc1CN1CCCCC1

>  <pKa>
2.16

$$$$

Exercise: Entry `CCN(CC)CCn1ccc(=O)c(O)c1C` : reported pKa = ?
Solution: 2.66

Exercise: Entry `Cc1c(O)c(=O)ccn1CCCn1ccnc1` : reported pKa = ?
Solution: 3.08

Exercise: Entry `Cc1c(O)c(=O)ccn1CCN(C)C` : reported pKa = ?
Solution: 2.86

Exercise: Entry `Cc1c(O)c(=O)ccn1CCN1CCCCC1` : reported pKa = ?
Solution: 2.88

Exercise: Entry `Cn1c(CO)cc(=O)c(O)c1CN1CCOCC1` : reported pKa = ?
Solution: 2.14

Exercise: Entry `Cn1c(CO)cc(=O)c(O)c1CN1CCCCC1` : reported pKa = ?
Solution: 2.41

Exercise: Entry `Cc1cc(=O)c(O)c(CN2CCOCC2)n1C` : reported pKa = ?
Solution: 2.43
